target.entity: Recombinant HLA-DRB1*1101 protein (human)
pIC50: −log10 of the molar value.
property.name: pIC50

[
  {
    "binder": "DAQITASSYFTNMFATWSP [FVIII2187-2205 peptide]",
    "obs.value": 4.92
  }
]
